Every entry's value here was drawn from ChEMBL document CHEMBL5584208.

# method: Metabolic stability in rat liver microsomes assessed as intrinsic clearance in liver
# Assay type: ADME, Microsome
# experimental_context: read-out: CLH
endpoint: CLint scaled (mL/min/kg)

- CCN(c1cc(-c2ccc(CN3CCOCC3)cc2)cc(C(=O)NCc2c(C)cc(C)[nH]c2=O)c1C)C1CCOCC1 [TAZEMETOSTAT]: 347
- CCN(c1cc(-c2ccc3c(c2)CCC3N2CCOCC2)cc(C(=O)NCc2c(C)cc(C)[nH]c2=O)c1C)C1CCOCC1 (configuration not stated): 468

* * *

# method: Clearance in mouse at 2 mg/kg, iv
# Type: ADME, organism-based
# experimental_context: in vivo
Classify: 1 (yes) when clearance is strictly less than 40 mL/min/kg; 0 (no) when clearance is not.

• CCN(c1cc(-c2ccc3c(c2)CCC3N2CCOCC2)cc(C(=O)NCc2c(C)cc(C)[nH]c2=O)c1C)C1CCOCC1 (stereo unspecified) = 1 (yes)
• CCN(c1cc(-c2ccc(CN3CCOCC3)cc2)cc(C(=O)NCc2c(C)cc(C)[nH]c2=O)c1C)C1CCOCC1 = 1 (yes)
• CCN(c1cc(-c2ccc3c(c2)NC(=O)C32CCN(C)CC2)cc(C(=O)NCc2c(C)cc(C)[nH]c2=O)c1C)C1CCOCC1 = 1 (yes)
• CCN1C(=O)C2(CCOCC2)c2ccc(-c3cc(C(=O)NCc4c(C)cc(C)[nH]c4=O)c(C)c(N(CC)C4CCOCC4)c3)cc21 = 0 (no)
• CCN(c1cc(-c2ccc3c(c2)N(C)CC32CCOCC2)cc(C(=O)NCc2c(C)cc(C)[nH]c2=O)c1C)C1CCOCC1 = 1 (yes)
• CCN(c1cc(-c2ccc3c(c2)NC(=O)C32CCOCC2)cc(C(=O)NCc2c(C)cc(C)[nH]c2=O)c1C)C1CCOCC1 = 0 (no)
